ASSAYED_SYSTEM: xanthine oxidase (XO) (Bos taurus)
PROCEDURE_SUMMARY: Xanthine oxidase inhibitory activity by UV spectroscopy (uric acid formation at 293 nm)
Format: biochemical
TEST_CONDITIONS: UV spectroscopy, xanthine 56 µM, XO 0.01 U/mL, 25 °C, n = 3; read-out: IC50 (µM), XO inhibition
Provide the recorded IC50 for the entries that follow.

Worked examples, 2 compounds total:
{"COMPOUND": "O=c1c(O[C@@H]2O[C@H](CO)[C@H](O)[C@H](O)[C@H]2O)c(-c2ccc(O)c(O)c2)oc2cc(O)cc(O)c12 [Hyperoside]", "IC50": "> 50 µM"}
{"COMPOUND": "O=c1c(O)c(-c2ccc(O[C@@H]3O[C@H](CO)[C@@H](O)[C@H](O)[C@H]3O)c(O)c2)oc2cc(O)cc(O)c12 [Spiraeoside]", "IC50": "0.66 µM"}

# next compound below
Query :: # lookup: IC50 of `O=c1c(O[C@@H]2O[C@H](CO)[C@@H](O)[C@H](O)[C@H]2O)c(-c2ccc(O)c(O)c2)oc2cc(O)cc(O)c12`
Result :: > 50 µM

* * *

ASSAYED_SYSTEM: UniProtKB P80457
PROCEDURE_SUMMARY: Xanthine oxidase inhibitory activity by UV spectroscopy (uric acid formation at 293 nm)
Format: biochemical
TEST_CONDITIONS: UV spectroscopy, xanthine 56 µM, XO 0.01 U/mL, 25 °C, n = 3; read-out: IC50 (µM), XO inhibition
READOUT_TYPE: IC50 (µM)
Give bare numbers, in µM.

Query :: IC50 lookup needed for `O=C(O[C@@H]1O[C@@H]2COC(=O)c3cc(Oc4c(C(=O)O[C@@H]5O[C@@H]6COC(=O)c7cc(O)c(O)c(O)c7-c7c(cc(O)c(O)c7O)C(=O)O[C@H]6[C@H](OC(=O)c6cc(O)c(O)c(O)c6)[C@H]5OC(=O)c5cc(O)c(O)c(O)c5)cc(O)c(O)c4O)c(O)c(O)c3-c3c(cc(O)c(O)c3O)C(=O)O[C@H]2[C@H](OC(=O)c2cc(O)c(O)c(O)c2)[C@H]1OC(=O)c1cc(O)c(O)c(O)c1)c1cc(O)c(O)c(O)c1` , thanks.
Result :: 35.7

* * *

ASSAYED_SYSTEM: xanthine oxidase (XO) (Bos taurus, UniProt P80457)
Sequence (P80457 2-1332 limits assumed): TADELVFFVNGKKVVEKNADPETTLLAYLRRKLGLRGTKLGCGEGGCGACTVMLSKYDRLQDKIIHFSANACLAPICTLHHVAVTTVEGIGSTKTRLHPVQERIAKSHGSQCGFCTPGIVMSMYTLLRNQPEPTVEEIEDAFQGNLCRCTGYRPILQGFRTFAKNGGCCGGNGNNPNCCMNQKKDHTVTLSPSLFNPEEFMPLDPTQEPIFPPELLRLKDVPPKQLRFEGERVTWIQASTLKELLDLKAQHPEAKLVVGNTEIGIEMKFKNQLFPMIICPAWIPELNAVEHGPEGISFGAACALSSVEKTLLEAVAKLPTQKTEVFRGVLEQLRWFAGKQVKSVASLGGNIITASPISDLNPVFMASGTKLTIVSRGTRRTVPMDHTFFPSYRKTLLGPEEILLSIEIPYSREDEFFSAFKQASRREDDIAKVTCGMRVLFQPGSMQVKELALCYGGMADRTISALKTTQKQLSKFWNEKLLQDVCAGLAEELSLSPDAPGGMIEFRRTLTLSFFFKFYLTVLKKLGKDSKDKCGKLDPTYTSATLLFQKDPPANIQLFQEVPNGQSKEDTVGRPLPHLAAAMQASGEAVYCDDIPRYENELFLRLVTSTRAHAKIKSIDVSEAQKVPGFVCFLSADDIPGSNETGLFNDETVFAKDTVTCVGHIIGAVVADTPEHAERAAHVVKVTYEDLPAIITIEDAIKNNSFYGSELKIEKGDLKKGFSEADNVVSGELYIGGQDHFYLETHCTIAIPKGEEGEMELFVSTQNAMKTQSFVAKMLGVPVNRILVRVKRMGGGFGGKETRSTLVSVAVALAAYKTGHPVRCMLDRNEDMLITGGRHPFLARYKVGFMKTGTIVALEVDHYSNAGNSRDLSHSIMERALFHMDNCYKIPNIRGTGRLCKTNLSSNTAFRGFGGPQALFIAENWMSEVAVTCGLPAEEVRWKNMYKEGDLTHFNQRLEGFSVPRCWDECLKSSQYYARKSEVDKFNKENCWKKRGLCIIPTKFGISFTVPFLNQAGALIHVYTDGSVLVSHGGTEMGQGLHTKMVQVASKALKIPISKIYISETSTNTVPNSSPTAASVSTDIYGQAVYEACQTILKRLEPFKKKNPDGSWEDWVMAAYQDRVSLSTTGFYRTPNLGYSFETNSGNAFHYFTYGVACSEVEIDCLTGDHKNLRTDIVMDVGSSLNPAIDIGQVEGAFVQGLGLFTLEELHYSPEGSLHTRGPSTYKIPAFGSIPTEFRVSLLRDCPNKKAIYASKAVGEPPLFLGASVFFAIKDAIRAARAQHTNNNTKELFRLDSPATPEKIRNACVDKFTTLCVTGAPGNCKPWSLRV
PROCEDURE_SUMMARY: Xanthine oxidase inhibitory activity by UV spectroscopy (uric acid formation at 293 nm)
Assay type: biochemical
READOUT_TYPE: IC50

Query :: What does the record list as IC50 for `O=C(O)c1cc(O)c(O)c(O)c1` ?
Result :: > 50 µM

* * *

Test system: xanthine oxidase (XO)
PROCEDURE_SUMMARY: Measurement of XO interaction by HPLC (crude extract incubated with and without enzyme)
Assay type: binding
TEST_CONDITIONS: crude extract 1 mg/mL, XO 0.1 U/mL, 1 h, HPLC-UV 254 nm
Description: The identification of bioactive compounds which form in a complex mixture by rapid screening, without the requirement of purification, is a challenging approach. […] Based on the method described by Wang, we incubated the enzyme with the crude extract and carried out HPLC analyses on the filtrate after centrifugation. The measurement of XO interaction was conducted according to Zhang’s procedure, with some modifications. […]
READOUT_TYPE: Interaction with XO (HPLC subtraction, negative peaks)

{"COMPOUND": "O=c1c(O)c(-c2ccc(O[C@@H]3O[C@H](CO)[C@@H](O)[C@H](O)[C@H]3O)cc2)oc2cc(O)cc(O)c12 [Kaempferol-4′-O-glucoside]", "ASSAYED_SYSTEM": "xanthine oxidase (XO)", "TEST_VALUE": "significant interactions"}
{"COMPOUND": "O=c1c(O[C@@H]2O[C@H](CO)[C@H](O)[C@H](O)[C@H]2O)c(-c2ccc(O)c(O)c2)oc2cc(O)cc(O)c12 [Hyperoside]", "ASSAYED_SYSTEM": "xanthine oxidase (XO)", "TEST_VALUE": "did not seem to interact"}
{"COMPOUND": "O=c1c(O[C@@H]2O[C@H](CO)[C@@H](O)[C@H](O)[C@H]2O)c(-c2ccc(O)c(O)c2)oc2cc(O)cc(O)c12 [Isoquercitrin]", "ASSAYED_SYSTEM": "xanthine oxidase (XO)", "TEST_VALUE": "did not seem to interact"}
{"COMPOUND": "O=C(O[C@@H]1O[C@@H]2COC(=O)c3cc(Oc4c(C(=O)O[C@@H]5O[C@@H]6COC(=O)c7cc(O)c(O)c(O)c7-c7c(cc(O)c(O)c7O)C(=O)O[C@H]6[C@H](OC(=O)c6cc(O)c(O)c(O)c6)[C@H]5OC(=O)c5cc(O)c(O)c(O)c5)cc(O)c(O)c4O)c(O)c(O)c3-c3c(cc(O)c(O)c3O)C(=O)O[C@H]2[C@H](OC(=O)c2cc(O)c(O)c(O)c2)[C@H]1OC(=O)c1cc(O)c(O)c(O)c1)c1cc(O)c(O)c(O)c1 [Rugosin D]", "ASSAYED_SYSTEM": "xanthine oxidase (XO)", "TEST_VALUE": "strongest interaction"}
{"COMPOUND": "O=C(OC1O[C@@H]2COC(=O)c3cc(O)c(O)c(O)c3-c3c(cc(O)c(O)c3O)C(=O)O[C@H]2[C@H](OC(=O)c2cc(O)c(O)c(O)c2)[C@H]1OC(=O)c1cc(O)c(O)c(O)c1)c1cc(O)c(O)c(O)c1 (some centres unmarked) [Tellimagrandin II]", "ASSAYED_SYSTEM": "xanthine oxidase (XO)", "TEST_VALUE": "strongest interaction"}
{"COMPOUND": "O=c1c(O)c(-c2ccc(O)c(O)c2)oc2cc(O)cc(O)c12 [Quercetin]", "ASSAYED_SYSTEM": "xanthine oxidase (XO)", "TEST_VALUE": "seem to interact"}

Each compound below has a reported value. Please supply its Interaction with XO (HPLC subtraction, negative peaks).
1. O=c1c(O)c(-c2ccc(O)cc2)oc2cc(O)cc(O)c12 [Kaempferol]
2. O=c1c(O)c(-c2ccc(O[C@@H]3O[C@H](CO)[C@@H](O)[C@H](O)[C@H]3O)c(O)c2)oc2cc(O)cc(O)c12 [Spiraeoside]

Result ::
["seem to interact", "significant interactions"]

* * *

System: xanthine oxidase (XO)
PROCEDURE_SUMMARY: HPTLC xanthine oxidase bioautography (NBT/formazan)
Assay type: biochemical
TEST_CONDITIONS: white/yellow spots on purple background; 1 mg/mL, 20 µL applied
READOUT_TYPE: XO inhibitory activity on HPTLC bioautography plate (spot intensity)

{"COMPOUND": "O=c1c(O[C@@H]2O[C@H](CO)[C@@H](O)[C@H](O)[C@H]2O)c(-c2ccc(O)c(O)c2)oc2cc(O)cc(O)c12", "ASSAYED_SYSTEM": "xanthine oxidase (XO)", "TEST_VALUE": "weak interactions"}
{"COMPOUND": "O=c1c(O[C@@H]2O[C@H](CO)[C@H](O)[C@H](O)[C@H]2O)c(-c2ccc(O)c(O)c2)oc2cc(O)cc(O)c12 [Hyperoside]", "ASSAYED_SYSTEM": "xanthine oxidase (XO)", "TEST_VALUE": "weak interactions"}

* * *

Test system: xanthine oxidase (XO)
PROCEDURE_SUMMARY: Measurement of XO interaction by HPLC (crude extract incubated with and without enzyme)
Type: binding
TEST_CONDITIONS: estimated from difference of peak area with and without XO; crude extract 1 mg/mL, XO 0.1 U/mL, 1 h

{"COMPOUND": "O=C(OC1O[C@@H]2COC(=O)c3cc(O)c(O)c(O)c3-c3c(cc(O)c(O)c3O)C(=O)O[C@H]2[C@H](OC(=O)c2cc(O)c(O)c(O)c2)[C@H]1OC(=O)c1cc(O)c(O)c(O)c1)c1cc(O)c(O)c(O)c1 (stereo partly shown)", "XO binding (%)": "around 30%"}
{"COMPOUND": "O=c1c(O)c(-c2ccc(O)c(O)c2)oc2cc(O)cc(O)c12", "XO binding (%)": "~50%"}
{"COMPOUND": "O=c1c(O)c(-c2ccc(O[C@@H]3O[C@H](CO)[C@@H](O)[C@H](O)[C@H]3O)c(O)c2)oc2cc(O)cc(O)c12 [Spiraeoside]", "XO binding (%)": "around 30%"}

* * *

Please respond with reported IC50 for every item in the list.
ASSAYED_SYSTEM: xanthine oxidase (XO) (Bos taurus)
PROCEDURE_SUMMARY: Xanthine oxidase inhibitory activity by UV spectroscopy (uric acid formation at 293 nm)
Assay type: biochemical
TEST_CONDITIONS: UV spectroscopy, xanthine 56 µM, XO 0.01 U/mL, 25 °C, n = 3; read-out: IC50 (µg/mL), XO inhibition (converted)

Completed entries (count: 2):
{"COMPOUND": "O=C(O)c1cc(O)c(O)c(O)c1", "ASSAYED_SYSTEM": "xanthine oxidase (XO) (Bos taurus)", "TEST_VALUE": "> 1760 µM"}
{"COMPOUND": "O=c1c(O[C@@H]2O[C@H](CO)[C@@H](O)[C@H](O)[C@H]2O)c(-c2ccc(O)c(O)c2)oc2cc(O)cc(O)c12", "ASSAYED_SYSTEM": "xanthine oxidase (XO) (Bos taurus)", "TEST_VALUE": "> 215 µM"}

Please state, for each entry, its recorded IC50.
1. O=C(O)c1ccccc1O
2. O=c1c(O)c(-c2ccc(O[C@@H]3O[C@H](CO)[C@@H](O)[C@H](O)[C@H]3O)c(O)c2)oc2cc(O)cc(O)c12 [Spiraeoside]
3. O=c1c(O[C@@H]2O[C@H](CO)[C@H](O)[C@H](O)[C@H]2O)c(-c2ccc(O)c(O)c2)oc2cc(O)cc(O)c12 [Hyperoside]

Result ::
1: > 2170 µM; 2: 0.668 µM; 3: > 215 µM
